# testedTarget: DD(E) fragment of fibrin
# assayOverview: affinity to DD(E) fragment of fibrin
pKd: −log10 of the molar value. Starred links: 1 amine or outer side, 2 acyl side, 3 side chain; linkers in the order of their positions; H or OH if unused. Positions of bridges follow the written chain, without caps; N, C: chain ends. Non-standard residues stand in square brackets, D forms with d. No end group written: not given here. Phe(4-OMe) = COc1ccc(C[C@H](N[*:1])C(=O)[*:2])cc1; Tyr(3-Cl) = N[C@@H](Cc1ccc(O)c(Cl)c1)C(=O)O; Tyr(3-I) = N[C@@H](Cc1ccc(O)c(I)c1)C(=O)O; Phe(3-OMe) = COc1cccc(C[C@H](N)C(=O)O)c1; Hyp = O=C(O)[C@@H]1C[C@@H](O)CN1; 4Pal = N[C@@H](Cc1ccncc1)C(=O)O; Gu = guanosine base unit; Inp = O=C(O)C1CCNCC1
readoutLabel: pKd

# count of solved cases: 3
Which pKd is reported for this binder? [Phe(4-OMe)]HC[Hyp]YDLCHIL (disulfide 3-8 (inferred)) [F(4-OMe)-H-C-Hyp-Y-D-L-C-H-I-L] > 6.40

Fill in the blank: the reported pKd of Y[dE]C[Hyp][Tyr(3-Cl)]GLCWIQ (disulfide 3-8 (inferred)) [Y-(D-E)-C-Hyp-Y(3-Cl)-G-L-C-W-I-Q] is ____. > 7.00

Query (binder): FEC[Hyp][Tyr(3-Cl)]GLCWIQ (disulfide 3-8 (inferred)) [F-E-C-Hyp-Y(3-Cl)-G-L-C-W-I-Q] ; field requested: pKd > 6.30

Further cases:
Using the record for F[His(Bzl)]C[Hyp][Tyr(3-Cl)]DLCHIL (disulfide 3-8 (inferred)) [F-H(Bzl)-C-Hyp-Y(3-Cl)-D-L-C-H-I-L] , report its pKd. > 7.00

Quick one: pKd of [Phe(3-OMe)]HC[Hyp][Tyr(3-I)]DLCHI (disulfide 3-8 (inferred)) [F(3-OMe)-H-C-Hyp-Y(3-I)-D-L-C-H-I] ? > 7.00

Entry LPCDYYGTCXD (Bip at 10; dD at 11) [L-P-C-D-Y-Y-G-T-C-Bip-dD] : reported pKd = ? > 5.00

Fill in the blank: the reported pKd of LPCDYYGTCXD (Me-Bip at 10) [L-P-C-D-Y-Y-G-T-C-Me-Bip-D] is ____. > 5.00

Could you tell me which pKd is on file for [Phe(4-OMe)]HC[Hyp][Tyr(3-I)]DLCHI (disulfide 3-8 (inferred)) [F(4-OMe)-H-C-Hyp-Y(3-I)-D-L-C-H-I] ? > 7.00

Param item = [4Pal]HC[Hyp][Tyr(3-I)]DLCHI (disulfide 3-8 (inferred)) [4Pal-H-C-Hyp-Y(3-I)-D-L-C-H-I] ; retrieve measured pKd. > 7.00

Which pKd is listed for LPCDYYGTC[MeL][Inp] (cysteine pairing not given here) [L-P-C-D-Y-Y-G-T-C-MeL-Inp] ? > 5.00

Please report the recorded pKd for [Gu]HC[Hyp][Tyr(3-I)]DLCHI (disulfide 3-8 (inferred)) [Gu-H-C-Hyp-Y(3-I)-D-L-C-H-I] . > 6.30

Fill blank: measured pKd of the binder [dF][dE]C[Hyp][Tyr(3-Cl)]GLCWIQ (disulfide 3-8 (inferred)) [(D-F)-(D-E)-C-Hyp-Y(3-Cl)-G-L-C-W-I-Q] is ____. > 6.70
